# Test summary: gradient 5% acetonitrile 3 min, to 50% in 2 min, to 85% in 15 min, held 3 min, 100 µL/min
# Setup conditions: column: Zorbax Extend-C18 2.1 x 50 mm; eluents: water / acetonitrile, 0.1% formic acid
Readout: RP-LC retention time
Please report the result as a number followed by the unit.

Inquiry: Requested read-out: RP-LC retention time. Entry: `N#Cc1cccc(-c2cn3c(n2)N(C(=O)c2ccco2)CCC3)c1`
Reply text: 645 s

Inquiry: Endpoint output: RP-LC retention time of `COc1ccc(-n2nnc(C(=O)N3CCOCC3)c2C)cc1Cl` . Value?
Reply text: 684 s

Inquiry: For the molecule shown here, CC1CCC(NC(=O)Cc2csc3nc(-c4ccccc4)cn23)CC1 (centres undefined) , give the reported RP-LC retention time.
Reply text: 843 s

Inquiry: Quick one: RP-LC retention time of `CCc1ccc(OCc2nc(CCN(C)C(=O)C3CCCC3)no2)cc1` ?
Reply text: 1020 s

Inquiry: Fill in the blank: the reported RP-LC retention time of CCc1ccc(OCC(=O)N(Cc2ccc(N(C)C)cc2)C2CCS(=O)(=O)C2)cc1 (centres undefined) is ____.
Reply text: 792 s

Inquiry: Would you kindly share the measured RP-LC retention time for `COc1ccc(-c2nnc(-c3ccc(Cl)c(S(=O)(=O)N4CCOCC4)c3)o2)cc1` ?
Reply text: 897 s

Inquiry: Consider the molecule shown here: `Cc1nc(-c2cn(C)c3ncccc23)sc1C(=O)Nc1ccc(F)c(F)c1` What is its recorded RP-LC retention time?
Reply text: 940 s

Inquiry: Sample `Cc1ccc(CNC(=O)C2CCN(S(=O)(=O)c3cc(C(=O)N4CCCC4)n(C)c3)CC2)cc1` — what was its RP-LC retention time?
Reply text: 872 s

Inquiry: Which RP-LC retention time is reported for this molecule? `O=C(C1CCN(c2ncnc3c2oc2ccccc23)CC1)N1CCN(c2ccc(Cl)cc2)CC1`
Reply text: 891 s

Inquiry: GET /values?readout=RP-LC retention time&item= `Cc1ccccc1Nc1c(-c2ccc(N(C)C)cc2)nc2ccc(Cl)cn12`
Reply text: 815 s

Inquiry: Would you mind telling me what RP-LC retention time value was observed for `Cn1c(CNc2nc3ccncc3n(Cc3ccccc3)c2=O)nc2ccccc21` ?
Reply text: 571 s

Inquiry: Which value of RP-LC retention time has been reported for CCCN1C(=O)C(NC(=O)c2cccc(OC)c2)(C(F)(F)F)C(C(=O)OC)=C1C (centres undefined) in the records?
Reply text: 946 s

Inquiry: State the recorded RP-LC retention time for this entry: `CN(C)S(=O)(=O)c1ccc(-c2nnc(C(=O)NCCCN3CCCC3=O)o2)cc1`
Reply text: 655 s

Inquiry: What RP-LC retention time value was documented for this molecule, COCCN(CC(=O)N1CCc2sccc2C1COc1ccccc1)C(=O)COC (centres undefined) ?
Reply text: 787 s

Inquiry: Item under review: `CCOC(=O)CCC(=O)Nc1ccc(-c2nnc(N(C)c3ccccc3)s2)cc1` . Reported RP-LC retention time?
Reply text: 702 s

Inquiry: Fill in the blank: the reported RP-LC retention time of `CC(C)c1noc(-c2ccnc(-n3cnc(C(=O)NC4CCCCC4)c3)c2)n1` is ____.
Reply text: 1020 s

Inquiry: # input molecule: `CCc1ccc(-c2nc(NC(=O)c3cc(C)on3)sc2C)cc1` ; wanted: its RP-LC retention time
Reply text: 1160 s

Inquiry: Which RP-LC retention time value belongs to COc1ccc(N2CC(c3noc(-c4ccc(Cl)cc4)n3)CC2=O)cc1 (centres undefined) ?
Reply text: 990 s

Inquiry: Reported RP-LC retention time, molecule `CNC(=O)N1CCCN(S(C)(=O)=O)CC1` : ____
Reply text: 533 s

Inquiry: For the molecule `Cc1cccc2c(C(=O)NC3CC3)cc(N(C)C)nc12` , what RP-LC retention time is on record?
Reply text: 588 s

Inquiry: If you can, please state the reported RP-LC retention time value of `CC(C)Cc1cc(-c2nn3c(-c4ccc(Br)cc4)nnc3s2)n[nH]1` .
Reply text: 1150 s

Inquiry: May I ask what RP-LC retention time has been recorded for `CCOC(=O)c1cnc(N2CCN(c3ccccn3)CC2)c2ccccc12` ?
Reply text: 692 s

Inquiry: Could you tell me which RP-LC retention time is on file for `Cc1ccc(-c2nc(-c3ccc4oc(C)nc4c3)no2)c(C)c1` ?
Reply text: 1310 s

Inquiry: I am curious: what RP-LC retention time value has been reported for `O=c1ccc(-c2cccs2)nn1CCNS(=O)(=O)c1ccccc1C(F)(F)F` ?
Reply text: 779 s

Inquiry: Recorded RP-LC retention time for `CCCn1cnc2cc(-c3noc(CNC(=O)Cc4ccccc4)n3)ccc21` , please?
Reply text: 659 s

Inquiry: I have this molecule here, `O=C(Nc1ccccc1NC(=O)c1ccccc1C(F)(F)F)c1ccsc1` , and I need its recorded RP-LC retention time.
Reply text: 830 s

Inquiry: Fill in: RP-LC retention time of `CCn1cc(CCNC(=O)Nc2cccc(Cl)c2C)c2cccnc21` is ___
Reply text: 761 s

Inquiry: Entry `COC(=O)c1nnn(-c2ccc(C)c(C)c2)c1C(=O)OC` : reported RP-LC retention time = ?
Reply text: 916 s

Inquiry: Which value of RP-LC retention time has been reported for `Cc1ccc(NC(=O)c2c(C)oc3nc(C)nc(N4CCCC4)c23)cc1` in the records?
Reply text: 774 s

Inquiry: For the molecule `O=C(NCC(F)(F)F)C(=O)NCC1(c2cccs2)CCCCC1` , what RP-LC retention time is on record?
Reply text: 804 s

Inquiry: GET /values?readout=RP-LC retention time&item= `CCN1C(=O)c2cc(S(=O)(=O)Nc3cccc(Cl)c3)ccc2Oc2cccnc21`
Reply text: 1060 s

Inquiry: Reported RP-LC retention time for `Cc1nnc(NC(=O)Cc2csc(Nc3ccc(OC(F)(F)F)cc3)n2)s1` : what is it?
Reply text: 790 s

Inquiry: // returns reported RP-LC retention time for input `Cc1nc(-c2ccccc2)cc2nn(CC(=O)Nc3ccccc3Br)c(=O)n12`
Reply text: 995 s

Inquiry: Would you kindly share the measured RP-LC retention time for `CCNc1cc(N2CCC(CCC(=O)Nc3ccc(C)cc3C)CC2)ncn1` ?
Reply text: 686 s

Inquiry: Would you mind telling me what RP-LC retention time value was observed for `CN(CC(=O)NC1CCCCC1)S(=O)(=O)c1c[nH]c(C(=O)N2CCCC2)c1` ?
Reply text: 722 s

Inquiry: Report RP-LC retention time for `Cn1nc(-c2nc(C3CC3)no2)c2c1CCN(C(=O)NCc1ccccc1)C2` please.
Reply text: 788 s

Inquiry: Record request: RP-LC retention time value, item `CC1CCN(S(=O)(=O)c2ccc3nc(N4CCN(c5ccc(F)cc5)CC4)ccc3c2)CC1`
Reply text: 1190 s

Inquiry: Requested field: RP-LC retention time. Item: CC(C)C(NC(=O)c1cccc(C#N)c1)C(=O)N1CCN(c2ccccn2)CC1 (centres undefined)
Reply text: 620 s

Inquiry: Entry CNC(=O)C1CCCN(c2nc3ncn(CC(=O)NCc4ccccc4Cl)c(=O)c3s2)C1 (centres undefined) has what RP-LC retention time?
Reply text: 664 s
